Values compiled from patent US11065227B2.

- Test system: U266 cell line
- EXPERIMENT: MTT cell viability assay, U266
- TEST_SETTINGS: Homo sapiens, U-266, 72 h, read-out: IC50, cell viability
RECORDED_ENDPOINT: IC50
Your answer should be a number followed by the unit of measure.

So what's the measured IC50 for this one? CCCCCc1cc(O)c2c(c1)OC(C)(C)[C@@H]1CCC(C)=C[C@@H]21 [THC, Tetrahydrocannabinol]
39.5 µM

###

- Test system: RPMI cell line
- EXPERIMENT: MTT cell viability assay, RPMI
- TEST_SETTINGS: 72 h, read-out: IC50, cell viability
RECORDED_ENDPOINT: pIC50
Would you please state pIC50, meaning minus log10 of the concentration in mol/L, as a bare number?

Please provide the recorded pIC50 for CCCCCc1cc(O)c2c(c1)OC(C)(C)[C@@H]1CCC(C)=C[C@@H]21 [THC, Tetrahydrocannabinol] , tested on RPMI cell line.
4.51
